# test description: Liver microsomal stability, rat
# Assay type: in vitro ADME
# protocol conditions: 1 µM compound; 0.5 mg/mL microsomes; NADPH; 30 minutes at 37°C
Examples of compounds with documented Rat microsomes (% remaining) follow.

{"columns": ["record smiles", "Rat microsomes (% remaining)"],
 "data": [
  ["CC(C)N1CCN(c2nc3ccc(NN=C(C#N)C#N)cc3o2)CC1", 50.7],
  ["Cn1c(N2CCOCC2)nc2ccc(NN=C(C#N)C#N)cc21", 77.8],
  ["CCn1c(N2CCOCC2)nc2cc(NN=C(C#N)C#N)ccc21", 96.8]
]}

###

# system under test: CYP2D6 (Homo sapiens)
# Construct: human liver microsomes (0.25 mg/mL); from tissue; host or cells: human liver microsomes
# Sequence (P10635 whole entry): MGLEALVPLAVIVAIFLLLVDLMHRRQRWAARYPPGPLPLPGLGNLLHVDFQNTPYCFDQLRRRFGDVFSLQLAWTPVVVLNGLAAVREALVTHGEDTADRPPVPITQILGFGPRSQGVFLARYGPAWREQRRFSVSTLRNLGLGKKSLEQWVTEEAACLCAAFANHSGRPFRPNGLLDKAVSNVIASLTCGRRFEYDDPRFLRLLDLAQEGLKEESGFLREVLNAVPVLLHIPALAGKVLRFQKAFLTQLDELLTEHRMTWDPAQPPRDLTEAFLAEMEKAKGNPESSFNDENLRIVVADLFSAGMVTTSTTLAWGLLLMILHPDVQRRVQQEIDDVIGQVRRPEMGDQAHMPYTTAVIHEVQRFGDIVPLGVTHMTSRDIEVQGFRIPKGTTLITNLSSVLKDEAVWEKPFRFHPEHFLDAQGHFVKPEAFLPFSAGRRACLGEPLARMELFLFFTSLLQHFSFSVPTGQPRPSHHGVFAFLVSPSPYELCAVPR
# test description: CYP isoenzyme activity inhibition in human liver microsomes, CYP2D6
# Assay type: in vitro ADME
# protocol conditions: 10 µM compound; human liver microsomes 0.25 mg/mL; relative to control without compound
# cutoff 90 % activity applies to CYP2D6 (% activity); >= gives 1, < gives -1

{"columns": ["compound", "assigned label"],
 "data": [
  ["CC1COCCN1c1nc2ccc(NN=C(C#N)C#N)cc2s1 (stereo not shown) [Compound 13]", 1],
  ["N#CC(C#N)=NNc1ccc2nc(N3CCNCC3)oc2c1 [Compound 25]", 1],
  ["N#CC(C#N)=NNc1ccc2nc(N3C4CCC3COC4)oc2c1 [Compound 20]", -1],
  ["N#CC(C#N)=NNc1ccc2nc(N3C4CCC3COC4)sc2c1 [Compound 11]", 1],
  ["Cn1c(N2CCOCC2)nc2cc(NN=C(C#N)C#N)ccc21 [Compound 6]", 1],
  ["CC1CN(c2nc3ccc(NN=C(C#N)C#N)cc3s2)CCO1 (stereo not shown) [Compound 12]", 1],
  ["CC(=O)N1CCN(c2nc3ccc(NN=C(C#N)C#N)cc3o2)CC1 [Compound 31]", 1],
  ["N#CC(C#N)=NNc1ccc2nc(N3CCNCC3)sc2c1 [Compound 24]", -1],
  ["COC1CCN(c2nc3ccc(NN=C(C#N)C#N)cc3s2)CC1 [Compound 9]", 1],
  ["N#CC(C#N)=NNc1ccc2nc(N3CCOCC3)[nH]c2c1 [Compound 7]", 1],
  ["N#CC(C#N)=NNc1ccc2nc(N3CC[C@@H](F)C3)oc2c1 [Compound 41]", -1]
]}

Reference for the values: patent EP4737445A1
